Molecular target: Recombinant human β-Secretase (BACE-1) (Homo sapiens)
Sequence (P56817 46-457 limits assumed): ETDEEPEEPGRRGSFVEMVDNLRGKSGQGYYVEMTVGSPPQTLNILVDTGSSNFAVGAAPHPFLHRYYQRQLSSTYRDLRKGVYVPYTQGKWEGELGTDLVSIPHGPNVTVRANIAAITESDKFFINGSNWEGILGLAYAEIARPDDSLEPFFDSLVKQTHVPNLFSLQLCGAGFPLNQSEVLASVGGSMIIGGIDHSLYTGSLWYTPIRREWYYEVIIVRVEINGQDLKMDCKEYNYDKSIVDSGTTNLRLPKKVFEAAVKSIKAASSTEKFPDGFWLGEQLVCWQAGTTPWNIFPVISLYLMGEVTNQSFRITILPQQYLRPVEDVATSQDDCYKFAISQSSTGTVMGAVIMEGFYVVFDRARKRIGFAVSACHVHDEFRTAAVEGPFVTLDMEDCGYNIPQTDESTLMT
Test: BACE1 inhibition assay with fluorogenic substrate
pIC50: −log10 of the molar value.
OBSERVED_PROPERTY: pIC50

The examples below pair each entry with its known result.
CCOC(=O)C1=C(C)NC(=O)NC1c1cccs1 (stereo not shown) :: 5.66
CCOC(=O)C1=C(C)NC(=O)NC1c1ccsc1 (stereo not shown) :: 5.49
COC(=O)C1=C(C)NC(=N)NC1c1ccccc1 (stereo not shown) :: 6.28

A. CCOC(=O)C1=C(C)NC(=O)NC1c1ccc([N+](=O)[O-])s1 (stereo not shown)
B. CCOC(=O)C1=C(C)NC(=O)NC1c1ccc(O)c(OC)c1 (stereo not shown)
Endpoint returns whichever of A and B has the numerically higher pIC50. Mark your selection by writing its label.
B
